biological target: GLP-1R (Homo sapiens, UniProt P43220); test: EC20 GLP-1(9-36) PAM cAMP assay: dose response of compound in the presence of fixed concentration of GLP-1(9-36); details: GLP-1R CRE-bla CHO-K1 cells, compound dose response in presence of fixed concentration of GLP-1(9-36)
Sequence (P43220 24-463): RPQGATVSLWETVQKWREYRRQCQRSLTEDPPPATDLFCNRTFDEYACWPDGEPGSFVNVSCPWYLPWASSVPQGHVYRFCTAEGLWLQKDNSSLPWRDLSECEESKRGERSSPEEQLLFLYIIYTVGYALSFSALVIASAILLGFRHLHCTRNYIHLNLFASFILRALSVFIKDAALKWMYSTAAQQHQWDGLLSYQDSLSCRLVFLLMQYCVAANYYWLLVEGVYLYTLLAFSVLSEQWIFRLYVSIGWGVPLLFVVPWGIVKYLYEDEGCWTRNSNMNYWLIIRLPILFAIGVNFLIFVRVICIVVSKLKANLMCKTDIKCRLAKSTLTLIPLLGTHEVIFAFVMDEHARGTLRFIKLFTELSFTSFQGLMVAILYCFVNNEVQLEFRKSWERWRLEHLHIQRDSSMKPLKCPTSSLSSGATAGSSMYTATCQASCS
Sequence (P01275 100-127 partner limits assumed): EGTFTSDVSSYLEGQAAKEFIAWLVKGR
Assay Endpoint: EC50

| Compound | EC50 |
| --- | --- |
| CCCCCCCOc1ccc(-c2cnc(-c3ccc(C[C@H](NC(=O)c4cc5c(s4)CCCC5)C(=O)O)cc3)nc2)cc1 [Compound 149] | 800 to 2500 nM |
| C[C@@H](NC(=O)[C@H](Cc1ccc(-c2ncc(-c3ccc(C(C)(C)C)cc3)cn2)cc1)NC(=O)c1ccc(C(C)(C)C)s1)C(=O)O [Compound 357] | 800 to 2500 nM |
| CCCCCCCOc1ccc(-c2cnc(-c3ccc(C[C@H](NC(=O)c4ccc(C(C)(C)C)s4)C(=O)N[C@H](CO)C(=O)O)cc3)nc2)cc1 [Compound 323] | < 800 nM |
| CC(C)(C)c1ccc(C(=O)N[C@@H](Cc2ccc(-c3ncc(-c4ccc(C(F)(F)F)cc4)cn3)cc2)C(=O)O)cc1 [Compound 209] | 800 to 2500 nM |

Request: Entry CC(C)(C)Cc1ccc(C(=O)N[C@@H](Cc2ccc(-c3ncc(-c4ccc(C(C)(C)C)cc4)cn3)cc2)C(=O)O)cc1 [Compound 172] : reported EC50 = ?
Response: 800 to 2500 nM

Request: Tell me the measured EC50 of CCCCCCCOc1ccc(-c2cnc(-c3ccc(C[C@H](NC(=O)c4cnc(C(C)C)nc4)C(=O)O)cc3)nc2)cc1 [Compound 131] , please.
Response: 800 to 2500 nM
